Test system: MS2 coat protein
EXPERIMENT DESCRIPTION: apparent KD of MS2 coat protein, switch ON state; designed switch direction (-1 OFF switch, 1 ON switch): -1; higher = weaker reporter binding
PROTOCOL CONDITIONS: FMN input: 0 or 200 uM; Eterna round: R93 (includes R88 designs)
Record 1 whenever apparent KD of MS2 coat protein is at 40 nM or higher; record 0 when lower.

Solved cases below.
*Q* Threshold query (apparent KD of MS2 coat protein >= 40 nM) on AAAAAAGGAGGAUAUACGAACAUGUCAAAAGACGUGAAGGGACAUGAGGAUCACCCAUGUAGAAGGUCUAAAAA [JL Part Open 35]
*A* 1

*Q* Threshold query (apparent KD of MS2 coat protein >= 40 nM) on AUAAAGACAGGAUAUACAUGAGGAUCACCCAUGUAAAAAAAAAAAAGUUCCUCAAAAAGUAGAAGGGUCAAUAA [JR_Exc003_Sub014]
*A* 0

*Q* Threshold query (apparent KD of MS2 coat protein >= 40 nM) on AACAGUACAGGAUAUACAUGAGGAUCACCCAUGUGAGAGAAAUAAAACAAAAAUAAAAGUAGAAGGGUACUGGA [Moding Maslow revisited (73) 22]
*A* 1

***
*Q* Threshold query (apparent KD of MS2 coat protein >= 40 nM) on AAAAAACAUGAGGAUCACCCAUGUGAGGAUAUGAAAAAACAAAAAAAAAAGUAAUCAAUCAGAAGGCACAACAA [JR_Exc--1_Sub1210]
*A* 0

*Q* Threshold query (apparent KD of MS2 coat protein >= 40 nM) on AGGAUGUCAGGAUAUGCGUAAAGAAUAAAACAAAUAACAACGCAGAAGGGACAUGAGGAUCACCCAUGUUAAGA [May 45]
*A* 1

---

# apparent KD of MS2 coat protein values compiled below
Tested on: MS2 coat protein
EXPERIMENT DESCRIPTION: apparent KD of MS2 coat protein; designed switch direction (-1 OFF switch, 1 ON switch): -1; higher = weaker reporter binding
PROTOCOL CONDITIONS: Eterna round: R95; input ligand: microRNA oligo, concentration not stated
Write the value in nM as a bare number.

*Q* Return reported apparent KD of MS2 coat protein for target or system MS2 coat protein, item CCAAUGUAAGGAUAUGACAAUGGUAUCUUCGGAUACCAUUGUCAGAAGGUACAUGAGGAUCACCCAUGUAUAAA [Ex4-3: 10] (puzzle: Exclusion 4) .
*A* 17.3

*Q* Return reported apparent KD of MS2 coat protein for target or system MS2 coat protein, item CUGGUGUGAGGAUAUCAGGACACGCCCGCGGACGUGUCAAAUGAGAAGGCACAUGAGGAUCACCCAUGUGGGAC [Onzausin] (puzzle: Exclusion 4) .
*A* 31.7

*Q* Return reported apparent KD of MS2 coat protein for target or system MS2 coat protein, item AGUACUAACACGGAAGUGUUAGUACAAUAAGCUUGUGUUACAUGAGGAUCACCCAUGUCCUCAUAAGCUCGUCUUAU [Mat - Sensor v3 - Turn-off var 2 - D61] (puzzle: Sensor v3, turn-off variant 2) .
*A* 12.4

*Q* Return reported apparent KD of MS2 coat protein for target or system MS2 coat protein, item CCAGGCGUCUUUGCUCGUCUUAUUUGGAGAUGACUGUUAACAUGAGGAUCACCCAUGUGUGUGGGAGCGUUGCAGUC [JR_SV3TOV2_Sub021] (puzzle: Sensor v3, turn-off variant 2) .
*A* 431

*Q* Return reported apparent KD of MS2 coat protein for target or system MS2 coat protein, item AAGAAACAUGAGGAUCACCCAUGUGAGGAUAUGACAAAGAAAAGAAAAGAAAGAAGAAUCAGAAGGCACAAAGG [salish99-ex1_r3_033] (puzzle: Exclusion 1) .
*A* 83.1

***
*Q* Return reported apparent KD of MS2 coat protein for target or system MS2 coat protein, item CCUCUGUAAGGAUAUACGGAGACCACUGGAAUCAGUGGAAAGUAGAAGGUACAUGAGGAUCACCCAUGUGAGAA [Laveatisce] (puzzle: Exclusion 4) .
*A* 36.2

*Q* Return reported apparent KD of MS2 coat protein for target or system MS2 coat protein, item AAUACACAUGAGGAUCACCCAUGUCAGGAUAUGCGGAAUAAGACUUUGGUCGAUAAAUGUAGAAGGGACGUUUA [Dr. RN-Ant/Googlypuddle] (puzzle: Exclusion 1) .
*A* 27.7

*Q* Return reported apparent KD of MS2 coat protein for target or system MS2 coat protein, item GGUGCGUAUGUGAGGAUAUGCUGGUCCUUGGAUCGGCAGAAGGCACAUGAGGAUCACCCAUGUGGUGUCGUACC [salish99_Bmod_Ex4_023] (puzzle: Brourd's mod of Exclusion 4) .
*A* 165

*Q* Return reported apparent KD of MS2 coat protein for target or system MS2 coat protein, item UUCCUGUCAGGAUAUGACUAGAUGCACGUUAGUGUGUUUACUUAGAAGGGACAUGAGGAUCACCCAUGUAUUCC [Bring Us a Shrubbery-15] (puzzle: Exclusion 4) .
*A* 25.1

---

Tested on: MS2 coat protein
EXPERIMENT DESCRIPTION: apparent KD of MS2 coat protein; designed switch direction (-1 OFF switch, 1 ON switch): -1; higher = weaker reporter binding
PROTOCOL CONDITIONS: Eterna round: R95; input ligand: microRNA oligo, concentration not stated
OBSERVABLE: apparent KD of MS2 coat protein (nM)
Write the value in nM as a bare number.

*Q* Specify apparent KD of MS2 coat protein for CAGUACUGAGGAUAUACAUGAGGAUCACCCAUGUGCUUUAGCUAGGAUACUAGCAUUAGUAGAAGGCAGUACUG [Fiskers Ex 3 828 mod 9] (puzzle: Exclusion 3) and stop.
*A* 11.3

*Q* Specify apparent KD of MS2 coat protein for AAAAAGCGAGGAUAUGCGGGCGGGUGCGGCCAGCCGAUGUGACAUGAGGAUCACCCAUGUAGAAGGCGCAAAAA [Excls2-VII] (puzzle: Exclusion 2) and stop.
*A* 12.3

*Q* Specify apparent KD of MS2 coat protein for GGCCUACGAGGAUAUCGCUAGCGGGACAUGAGGAUCACCCAUGUGUCGGACCGCGUCAUGCGAGAAGGUGUAAUGA [Ribeceve] (puzzle: Exclusion 5) and stop.
*A* 14.9

Now consider the entry below.
*Q* Specify apparent KD of MS2 coat protein for UCGGCGCGAGGAUAUGCGGUUCCUUCUUCGGGCCGGAGCGUACAUGAGGAUCACCCAUGUAGAAGGCGCGCCGC [Apr-15 SS2-37] (puzzle: Exclusion 2) and stop.
*A* 12.6

---

Tested on: MS2 coat protein
EXPERIMENT DESCRIPTION: apparent KD of MS2 coat protein; designed switch direction (-1 OFF switch, 1 ON switch): -1; higher = weaker reporter binding
PROTOCOL CONDITIONS: input ligand: FMN 200 uM
Record Met whenever apparent KD of MS2 coat protein is at 30 nM or higher; record Not met when lower.

Solved cases below.
*Q* Threshold query (apparent KD of MS2 coat protein >= 30 nM) on GGGUAACAUGAGGAUCACCCAUGUGAGGAUAUUCUAGGGAUGGAAGCUCGGCCGGCCAGGAGAAGGUACUAAAG [Janelle Amethyst 18 Mod 20 - Jieux - Exclusion 1] (Eterna round: R96, puzzle: Exclusion 1)
*A* Met

*Q* Threshold query (apparent KD of MS2 coat protein >= 30 nM) on GUUGCUACUGAGGAUAUUAUUUUACCCGACUGAUAAGAAGGCAGUACAUGAGGAUCACCCAUGUGGGUAGCCAG [Polaris15] (Eterna round: R97, puzzle: Exclusion 6)
*A* Met

*Q* Threshold query (apparent KD of MS2 coat protein >= 30 nM) on GUCCUACAUGAGGAUCACCCAUGUGAGGAUAUGCGGUUAGCUGCUAGGUAGUUAGUAUGCAGAAGGCGCGUGAA [EX1 #80] (Eterna round: R97, puzzle: Exclusion 1)
*A* Not met

*Q* Threshold query (apparent KD of MS2 coat protein >= 30 nM) on UUUAAUUUUUUUUUUUUACAAGCUUUUUGCUCGUCUUAUACAUGAGGAUCACCCAUGUGGGUAGAGAGUAAAUUAUC [JMF 59] (Eterna round: R96, puzzle: Sensor v3, turn-off variant 2)
*A* Not met

*Q* Threshold query (apparent KD of MS2 coat protein >= 30 nM) on GCAGCAUAGUUUACUAACUGUUACAUGAGGAUCACCCAUGUCUAGGAUAUGGUCUGGAUUACAGGCCAGAAGGAGACAAGCUGC [Eli exng3 - 034] (Eterna round: R96, puzzle: Exclusion NG 3)
*A* Not met

***
*Q* Threshold query (apparent KD of MS2 coat protein >= 30 nM) on CACCUACAUGAGGAUCACCCAUGUGAGGAUAUGGAACAACAAGAACAUUUACUUGUUCCCAGAAGGCACAUUGG [jun14#1] (Eterna round: R97, puzzle: Exclusion 1)
*A* Met

*Q* Threshold query (apparent KD of MS2 coat protein >= 30 nM) on GCUUUUGGGCAAGGAUAUCCUGCGCGGUUCCGGUUCGUGUCUGUCACAUGAGGAUCACCCAUGUGGGAGAAGGUGCCUGUGGUG [Design 72] (Eterna round: R96, puzzle: Exclusion NG 2)
*A* Not met

*Q* Threshold query (apparent KD of MS2 coat protein >= 30 nM) on AAUAAUGUAGGAUAUACAUGAGGAUCACCCAUGUCCCACCCGUUACCUAUGACCAUAUGUAGAAGGACAAAUAA [Exy#4] (Eterna round: R97, puzzle: Exclusion 3)
*A* Met

*Q* Threshold query (apparent KD of MS2 coat protein >= 30 nM) on UACAUGAGGAUCACCCAUGUUUUGUCGUGUAUGGUAUUUAUCUAGGAUAUCAUUUUAUUUAGCUAUGAGAAGGAGAAUAUUAAU [JMF's solution 94] (Eterna round: R96, puzzle: Exclusion NG 3)
*A* Met
